# Measurement Target: Avi-KRAS G12D (1-169) GppNHp/RAF1 RBD-3×FLAG (52-151) (Homo sapiens, UniProt P01116, G12D)
# Construct: Avi-KRAS G12D (1-169) GppNHp
# Sequence (P01116 1-169 isoform P01116-2 G12D limits assumed): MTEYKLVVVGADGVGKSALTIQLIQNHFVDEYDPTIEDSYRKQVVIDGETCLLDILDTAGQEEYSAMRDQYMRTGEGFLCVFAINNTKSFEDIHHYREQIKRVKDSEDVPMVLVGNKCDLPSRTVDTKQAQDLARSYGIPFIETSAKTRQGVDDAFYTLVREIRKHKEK
# Experiment: HTRF Raf1-KRAS G12D-GppNHp disruption assay
# Experimental Setup: 1 h incubation
pIC50: −log10 of the molar value.
Measured Property: pIC50

These recorded examples may help you get a feel for the data.
1. COc1cc2c(N3CCNCC3)nc(OCC34CCCN3CCC4)nc2c(F)c1-c1ccc(F)c2sc(N)nc12 : 5.00 to 6.00
2. CN1CCC[C@H]1COc1nc(N2CCNCC2)c2cc(OC(F)(F)F)c(-c3ccc(F)c4sc(N)nc34)c(F)c2n1 : 5.00 to 6.00
3. CN1CCC[C@H]1COc1nc(N2C[C@@H]3[C@H]2CCN3C(=O)CN)c2cc(Cl)c(-c3cccc4nc(N)sc34)c(F)c2n1 : 4.52 to 5.00

Task item: State its pIC50: CN(c1nc(OCC23CCCN2CCC3)nc2c(F)c(-c3ccc(F)c4sc(N)nc34)c(C(F)(F)F)cc12)C1CCNCC1
Reply: 5.00 to 6.00

Task item: State its pIC50: C[C@@H]1CN(c2nc(OC[C@@]34CCCN3C[C@H](F)C4)nc3c(F)c(-c4ccc(F)c5sc(N)nc45)c(C(F)(F)F)cc23)CCN1
Reply: 6.00 to 7.00

Task item: State its pIC50: CO[C@@H]1CN(C)C[C@H]1Oc1nc(N2CCNCC2)c2cc(Cl)c(-c3ccc(F)c4sc(N)nc34)c(F)c2n1
Reply: 4.52 to 5.00

* * *

# System: pERK in GP2d cells (KRAS G12D)
# Experiment: Cell-based pERK HTRF assay
# Experimental Setup: GP2d, 1 h, 60 min incubation
pIC50: −log10 of the molar value.
Listing: pIC50 of selected compounds

These recorded examples may help you get a feel for the data.
1) Nc1nc2c(-c3c(C(F)(F)F)cc4c(N5CC6CCC(C5)N6)nc(OCC56CCCN5CCC6)nc4c3F)ccc(F)c2s1 : ≥ 7.00
2) Nc1nc2c(-c3c(C(F)(F)F)cc4c(N5CC6CCC(C5)N6)nc(OCC5(CN6CC[C@@H](F)C6)CC5)nc4c3F)ccc(F)c2s1 : ≥ 7.00

Task item: State its pIC50: Nc1nc2c(-c3c(C(F)(F)F)cc4c(N5CCC6(CCNC6)C5)nc(OCC56CCCN5CCC6)nc4c3F)ccc(F)c2s1 (stereo not drawn)
Reply: < 6.00

* * *

# Measurement Target: Avi-KRAS G12D (1-169) GppNHp/RAF1 RBD-3×FLAG (52-151) (Homo sapiens, UniProt P01116, G12D)
# Construct: Avi-KRAS G12D (1-169) GppNHp
# Experiment: HTRF Raf1-KRAS G12D-GppNHp disruption assay
# Experimental Setup: 1 h incubation
pIC50: −log10 of the molar value.
Listing: pIC50 of selected compounds

1) CN(c1nc(OCC2(CN3CC[C@@H](F)C3)CC2)nc2c(F)c(-c3ccc(F)c4sc(N)nc34)c(C(F)(F)F)cc12)[C@@H]1CCNC1 [Compound 297] : 6.00 to 7.00
2) NC(=O)N1CCN(c2nc(OCC34CCCN3CCC4)nc3c(F)c(-c4ccc(F)c5sc(N)nc45)c(Cl)cc23)CC1 [Compound 162] : 4.52 to 5.00
3) CN(C)CCNc1nc(OC[C@@H]2CCCN2C)nc2c(F)c(-c3ccc(F)c4sc(N)nc34)c(Cl)cc12 [Compound 75] : 5.00 to 6.00
4) Nc1nc2c(-c3c(C(F)(F)F)cc4c(N5C[C@H]6CC[C@@H](C5)N6)nc(OC[C@@]56CCCN5C[C@H](F)C6)nc4c3O)ccc(F)c2s1 [Compound 343] : 4.52 to 5.00
5) CN(c1nc(OCC23CCCN2CCC3)nc2c(F)c(-c3ccc(F)c4sc(N)nc34)c(C(F)(F)F)cc12)[C@@H]1CCN(C(N)=O)C1 (atropisomer, axis not shown) [Compound 278] : 5.00 to 6.00

Task item: Fill in: pIC50 on Avi-KRAS G12D (1-169) GppNHp/RAF1 RBD-3×FLAG (52-151) (Homo sapiens, UniProt P01116, G12D), entry CC1(C)CN2CCCC2(COc2nc(N3CCNCC3)c3cc(C(F)(F)F)c(-c4ccc(F)c5sc(N)nc45)c(F)c3n2)C1 (stereo not drawn) [Compound 198]
Reply: 5.00 to 6.00

Task item: Fill in: pIC50 on Avi-KRAS G12D (1-169) GppNHp/RAF1 RBD-3×FLAG (52-151) (Homo sapiens, UniProt P01116, G12D), entry CN(c1nc(OC[C@@]23CCCN2C[C@H](F)C3)nc2c(F)c(-c3ccc(F)c4sc(N)nc34)c(C(F)(F)F)cc12)[C@@H]1CNCC1(C)C [Compound 293]
Reply: 6.00 to 7.00

Task item: Fill in: pIC50 on Avi-KRAS G12D (1-169) GppNHp/RAF1 RBD-3×FLAG (52-151) (Homo sapiens, UniProt P01116, G12D), entry CCN(c1nc(OC[C@@H]2CCCN2C)nc2c(F)c(-c3ccc(F)c4sc(N)nc34)c(Cl)cc12)C1CNC1 [Compound 196]
Reply: 4.52 to 5.00

Task item: Fill in: pIC50 on Avi-KRAS G12D (1-169) GppNHp/RAF1 RBD-3×FLAG (52-151) (Homo sapiens, UniProt P01116, G12D), entry CN1CCC[C@H]1COc1nc(N2CCNCC2)c2cc(C(F)(F)F)c(-c3ccc(F)c4sc(N)nc34)c(F)c2n1 [Compound 115]
Reply: 5.00 to 6.00

Task item: Fill in: pIC50 on Avi-KRAS G12D (1-169) GppNHp/RAF1 RBD-3×FLAG (52-151) (Homo sapiens, UniProt P01116, G12D), entry C[C@@H]1C[C@@H](N(C)c2nc(OC[C@@]34CCCN3C[C@H](F)C4)nc3c(F)c(-c4ccc(F)c5sc(N)nc45)c(C(F)(F)F)cc23)CN1 [Compound 283]
Reply: 6.00 to 7.00

Task item: Fill in: pIC50 on Avi-KRAS G12D (1-169) GppNHp/RAF1 RBD-3×FLAG (52-151) (Homo sapiens, UniProt P01116, G12D), entry CN1CCC[C@H]1COc1nc(N2CCN(C(=O)CN)CC2)c2cc(C(F)(F)F)c(-c3ccc(F)c4sc(N)nc34)c(F)c2n1 [Compound 116]
Reply: 5.00 to 6.00

Task item: Fill in: pIC50 on Avi-KRAS G12D (1-169) GppNHp/RAF1 RBD-3×FLAG (52-151) (Homo sapiens, UniProt P01116, G12D), entry NC(=O)N1C2CCC1CN(c1nc(OC[C@@]34CCCN3C[C@H](F)C4)nc3c(F)c(-c4ccc(F)c5sc(N)nc45)c(C(F)(F)F)cc13)C2 [Compound 273]
Reply: 5.00 to 6.00
